Reported MIC values for the following compounds.
experiment: Antimicrobial activity against Staphylococcus saprophyticus ATCC 15305 incubated for 20 hrs by microdilution method; assay type: functional, Staphylococcus saprophyticus subsp. saprophyticus; conditions: ATCC 15305, 20 h
Test readout: MIC (µg/mL)

• Cc1onc(-c2ccccc2)c1C(=O)N[C@@H]1C(=O)N2[C@@H]1SC(C)(C)[C@@H]2C(=O)O = 1
• O=[N+]([O-])c1ccc(O)c(CNc2cccc(Cl)c2)c1 = 16
• CC(C)(C)c1ccccc1NCc1cc([N+](=O)[O-])ccc1O = 2
• O=[N+]([O-])c1ccc(O)c(CNc2ccccc2Cl)c1 = 8
• CN[C@H](CC(C)C)C(=O)N[C@H]1C(=O)N[C@@H](CC(N)=O)C(=O)N[C@H]2C(=O)N[C@H]3C(=O)N[C@H](C(=O)N[C@H](C(=O)O)c4cc(O)cc(O)c4-c4cc3ccc4O)[C@H](O)c3ccc(c(Cl)c3)Oc3cc2cc(c3O[C@@H]2O[C@H](CO)[C@@H](O)[C@H](O)[C@H]2O[C@H]2C[C@](C)(N)[C@H](O)[C@H](C)O2)Oc2ccc(cc2Cl)[C@H]1O = 1
• O=[N+]([O-])c1ccc(O)c(CNc2ccccc2C(F)(F)F)c1 = 4
• CC(C)(C)c1cccc(NCc2cc([N+](=O)[O-])ccc2O)c1 = 1
• O=C(O)c1cn(C2CC2)c2cc(N3CCNCC3)c(F)cc2c1=O = 0.5
• C#Cc1cccc(NCc2cc([N+](=O)[O-])cc(Br)c2O)c1 = 16
• CC(C)(C)c1ccc(NCc2cc([N+](=O)[O-])ccc2O)cc1 = 8

The values you see were collected from ChEMBL document CHEMBL4364256.
